Overview of reported growth inhibition across a group of molecules:
# ASSAY PROTOCOL: NCI Yeast Anticancer Drug Screen. Data for the bub3 strain (AID 167)
# RUN PARAMETERS: S. cerevisiae bub3 mutant strain, at 50.0 µM (retest, dose inferred, filed as 5.0), active compounds read high
The panel holds about 79,000 compounds, 15% with a hit somewhere; the sample as a whole holds those more often.

MOLECULE	RESULT UNITS	growth inhibition
C/C(C=C(C#N)C#N)=C\c1ccc([N+](=O)[O-])cc1	%	81
O=C(CNc1ccc([N+](=O)[O-])cc1)Nn1c(-c2ccccc2)nc2ccccc2c1=O	%	54
CCc1ccc(N(C(C)=O)C2=C(Cl)C(=O)c3ccccc3C2=O)cc1	%	100
C=C(c1ccccc1)[P+](c1ccccc1)(c1ccccc1)c1ccccc1	%	99
OC(CBr)c1c(Br)ccc2ccccc12 (centres undefined)	%	77
O=C(Nc1ccc(-c2cn3ccccc3n2)cc1)c1cc(Br)ccc1O	%	6
CC(SC1=CC(=O)c2c(O)ccc(O)c2C1=O)C(=O)O (centres undefined)	%	-5
Oc1ccccc1C1C=C(c2ccccc2)NC(N2CCCCC2)=C1c1nc2ccccc2[nH]1 (centres undefined)	%	6
CCOC(=O)CSC(=S)N1CCOCC1	%	-6
CCc1cccc(C(C)(C)C)c1NC(=S)N/C=C(\C#N)C(=O)c1ccc2ccccc2c1	%	18
CC1(C)CC[C@]2(C(=O)O)CC[C@]3(C)C(=CC[C@@H]4[C@@]5(C)C[C@H](O)[C@H](O)[C@@](C)(C(=O)O)[C@@H]5CC[C@]43C)[C@@H]2C1	%	99
CC(C)C(Br)CC/C(CBr)=C(\Cl)CCl (centres undefined)	%	99
O=C1C2C3CCC(O3)C2C(=O)N1c1cccc2ccccc12 (centres undefined)	%	7
O/N=C(/Cc1ccccc1)c1ccc2c(c1)OCO2	%	29
O=C(/C=C(\C(=O)c1ccccc1)N(/C(=C/C(=O)c1ccccc1)C(=O)c1ccccc1)c1ccccc1)c1ccccc1	%	34
COC1=CC(=O)C(C#CCOCc2ccccc2)=CC1=O	%	99
CN(C)CC1CCCCCCCCCCCCC(CN(C)C)C1=O (centres undefined)	%	46
CN(C)C=NCCNc1ccc([N+](=O)[O-])cn1	%	-77
ClC1=CC(Cl)=C2N=C(C(Cl)(Cl)Cl)N=C3N=C(C(Cl)(Cl)Cl)N=C1N32	%	94
C1CCC2[N-]CC3CCCCC3[N-]CC3CCCCC3[N-]CC3CCCCC3[N-]CC2C1.[Cl][Fe]([Cl])([Cl])[Cl].[Fe+6] (centres undefined)	%	97
C/C(=N\O)c1ccc2cc(Br)c3ccccc3c2c1	%	98
COc1ccc2ccccc2c1-c1c(O)ccc2ccccc12	%	64
Clc1nssc1=Nc1nonc1-c1ccccc1	%	99
Cc1ccc(N2C(c3ccccc3)=CC(=C3C=CC(=O)C=C3)C=C2c2ccccc2)cc1	%	80
O=C1c2c(Br)c(Br)c(Br)c(Br)c2C(=O)N1c1nccs1	%	70
CC1=Nc2ccccc2/C1=C\c1c(C)[nH]c2ccccc12	%	97
Nc1ccccc1SC(/C=C/NNC1=NC(c2ccccc2)C(c2ccccc2)=NN1)c1ccccc1 (centres undefined)	%	30
O=C(O)c1ccccc1-c1ccccc1C(=O)Nc1ccc2c(c1)Cc1cc(F)ccc1-2	%	92
Cc1cccc(C[N+](C)(C)CCCO)c1C	%	1
O=C(O)c1c[nH]c2cc(Cl)ccc2c1=O	%	-2
CC1=C(C)C(N2CCOCC2)CS(=O)(=O)O1 (centres undefined)	%	-1
COc1cccc2c1C(=O)c1c(O)c3c(c(O)c1C2=O)C[C@@](O)(C(C)=O)C[C@@H]3OC1CC([N+]([O-])(Cc2ccccc2)Cc2ccccc2)C(O)C(C)O1 (some centres undefined)	%	81
N#C/C(=C1C=C/C(=N/O)c2ccccc2/1)c1ccc(Cl)cc1	%	61
S=C(NCc1ccccc1)[S][Sb]([S]C(=S)NCc1ccccc1)[c]1ccccc1	%	93
Nc1ccc2c(c1)S(=O)(=O)c1cc(N)ccc1-2	%	27
CC(=O)OCc1ccc([N+](=O)[O-])o1	%	73
NC(=S)N/N=C\C12CC3CC(CC(C3)C1)C2	%	98
CC(NNC(=S)N1CC2CCC(CC2)C1)c1nccc2ccccc12 (centres undefined)	%	94
CC1=CC(C)(C)Nc2cc(N)ccc21	%	-85
Cc1nc2ccc(N=Nc3c(O)ccc4ccccc34)cc2[nH]1	%	77
CSc1ccc(C(=O)C(=O)c2ccc(SC)s2)s1	%	9
Cc1ccc2sc3ccc(N)cc3c(=O)c2c1	%	95
CC1CCCCC12C(C#N)(C#N)C2(C#N)C#N (centres undefined)	%	97
Nc1nc(N)c(N=O)c(Nc2cccc(Br)c2)n1	%	98
